Test system: wild oat (Avena fatua)
Test: Test B pre-/postemergence plant response
Format: in vivo
Conditions: Postemergence, 31 g ai/ha; 0 to 100 scale (0 no effect, 100 complete control)
Listing of recorded Plant response rating, Oat, Wild by entry.

- compound: "COCCCn1c(-c2cccc(Br)c2)ncc(C(=O)C2=C(O)CCCC2=O)c1=O"
  study-system: "wild oat (Avena fatua)"
  Plant response rating, Oat, Wild: 0
- compound: "O=C1CCCC(O)=C1C(=O)c1cnc(-c2cc(F)cc(F)c2)n(C2CCCCC2)c1=O"
  study-system: "wild oat (Avena fatua)"
  Plant response rating, Oat, Wild: 65
- compound: "O=C1CCCC(O)=C1C(=O)c1cnc(-c2ccccc2)n(C2CCSCC2)c1=O"
  study-system: "wild oat (Avena fatua)"
  Plant response rating, Oat, Wild: 25
- compound: "COCCn1c(-c2cccc(Cl)c2)ncc(C(=O)C2=C(O)CCCC2=O)c1=O"
  study-system: "wild oat (Avena fatua)"
  Plant response rating, Oat, Wild: 5
- compound: "O=C(C1=C(O)C2CCC(C2)C1=O)c1cnc(-c2ccsc2)n(CC2CCCO2)c1=O (stereo not shown)"
  study-system: "wild oat (Avena fatua)"
  Plant response rating, Oat, Wild: 0
- compound: "CCCCn1c(-c2cccc(F)c2)ncc(C(=O)C2=C(O)C3CCC(C3)C2=O)c1=O (stereo not shown)"
  study-system: "wild oat (Avena fatua)"
  Plant response rating, Oat, Wild: 40
- compound: "O=C1CCCC(O)=C1C(=O)c1cnc(-c2cccs2)n(C2CCCCC2)c1=O"
  study-system: "wild oat (Avena fatua)"
  Plant response rating, Oat, Wild: 5
